Data provenance: PubChem BioAssay

# measurementTarget: Left-right determination factor 2 (Homo sapiens) (UniProt O00292)
# Sequence (O00292 whole entry, looked up): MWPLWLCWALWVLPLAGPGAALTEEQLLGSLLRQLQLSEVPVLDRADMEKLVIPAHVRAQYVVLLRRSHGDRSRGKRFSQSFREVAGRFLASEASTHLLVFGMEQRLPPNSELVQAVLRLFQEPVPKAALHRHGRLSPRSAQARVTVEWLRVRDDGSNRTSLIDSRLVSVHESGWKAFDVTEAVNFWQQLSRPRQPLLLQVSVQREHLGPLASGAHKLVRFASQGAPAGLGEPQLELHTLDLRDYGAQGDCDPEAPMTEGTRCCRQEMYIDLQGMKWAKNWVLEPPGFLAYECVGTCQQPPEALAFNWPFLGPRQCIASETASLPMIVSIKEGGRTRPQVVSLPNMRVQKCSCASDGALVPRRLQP
# assayComment: LEFTY2 binders on small-molecule microarrays, primary screen, biochemical, small-molecule microarray, 635 nm fluorescence scan (AID 1110)
# testSettings: LEFTY2 binding, higher = more signal
recordedEndpoint: composite z-score

[
  {
    "structureNotation": "CO[C@H]1O[C@H](CO)[C@@H](OC(=O)Nc2ccccc2)[C@H](OC(=O)Nc2ccccc2-c2ccccc2)[C@H]1OC(=O)Nc1ccccc1-c1ccccc1",
    "recordedEndpoint": "composite z-score",
    "reading": 0.152
  },
  {
    "structureNotation": "COCCOC(=O)N1C(=O)[C@@]2(c3cc(C#CC4(O)CCCCCC4)ccc31)[C@H](c1ccc(O)cc1)N1[C@H](c3ccccc3)[C@H](c3ccccc3)OC(=O)[C@H]1[C@@H]2C(N)=O",
    "recordedEndpoint": "composite z-score",
    "reading": -0.0539
  },
  {
    "structureNotation": "C=C[C@H](OC)[C@@H](OC(=O)Nc1ccc(OC)cc1)c1ccc(OC)c(O)c1",
    "recordedEndpoint": "composite z-score",
    "reading": -1.63
  },
  {
    "structureNotation": "COC(=O)c1c(CC[C@@H](CO)NC(=O)Nc2ccc(OC)cc2)oc(C(=O)Cc2ccccc2)c1C(=O)OC",
    "recordedEndpoint": "composite z-score",
    "reading": 0.239
  },
  {
    "structureNotation": "O=C1N(CCS(=O)(=O)c2ccccc2)Cc2ccccc2[C@@H]2OC(c3ccc(OCCCO)cc3)=N[C@]12Cc1ccccc1",
    "recordedEndpoint": "composite z-score",
    "reading": 0.533
  },
  {
    "structureNotation": "CO[C@H]1O[C@H](CO)[C@@H](OC(=O)Nc2ccccc2)[C@H](OC(=O)Nc2ccc3c(c2)OCO3)[C@H]1OC(=O)Nc1ccc2c(c1)OCO2",
    "recordedEndpoint": "composite z-score",
    "reading": 0.452
  },
  {
    "structureNotation": "C=C(C(=O)CC[C@@H](OC(C)=O)c1ccccc1OCCO)C(C)C",
    "recordedEndpoint": "composite z-score",
    "reading": -0.325
  }
]
